# test.protocol: in vitro
# Type: cell-based
# assay.conditions: human, HepG2 or HepG2.117 cells, 4-days incubation (values marked with *), ATPlite; mean value
CC50 at 4 days: recorded values
experimental.readout: CC50 at 4 days

>  <compound.string>
COc1ccc(CNc2nc3c(c(=O)n2-c2cccc(C(F)(F)F)c2)CCN(C(=O)c2ccc(Cl)c(Cl)c2)C3)cc1

>  <value>
> 50 µM

$$$$
>  <compound.string>
COc1ccccc1-n1c(NC(C)C)nc2c(c1=O)CCN(C(=O)c1ccc(Cl)c(Cl)c1)C2

>  <value>
> 50 µM

$$$$
>  <compound.string>
COc1ccc(CNc2nc3c(c(=O)n2-c2ccccc2OC)CCN(C(=O)c2ccc(F)c(Cl)c2)C3)cc1

>  <value>
> 50 µM

$$$$
